# assayTarget: Human NPY5 receptor (Homo sapiens, UniProt Q15761)
# Sequence (Q15761 whole entry): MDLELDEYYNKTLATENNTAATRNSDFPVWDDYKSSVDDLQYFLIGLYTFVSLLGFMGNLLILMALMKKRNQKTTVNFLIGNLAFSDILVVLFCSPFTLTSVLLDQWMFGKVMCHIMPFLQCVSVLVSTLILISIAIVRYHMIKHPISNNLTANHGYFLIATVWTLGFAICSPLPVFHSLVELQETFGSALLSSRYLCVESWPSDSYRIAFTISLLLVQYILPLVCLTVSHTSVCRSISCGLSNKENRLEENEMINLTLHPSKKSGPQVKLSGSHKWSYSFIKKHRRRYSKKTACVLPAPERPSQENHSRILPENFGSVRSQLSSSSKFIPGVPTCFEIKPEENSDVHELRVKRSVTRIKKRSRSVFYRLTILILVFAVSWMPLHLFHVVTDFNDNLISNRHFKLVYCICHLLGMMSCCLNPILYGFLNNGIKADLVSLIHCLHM
# testName: Human NPY5 receptor binding assay ([125I]PYY, membrane protein)
# conditionsUsed: [125I]PYY binding, read-out: hNPY5 IC50
Known IC50 of a selection of compounds
Please give a number only; it is taken to be in nM.

In [3]: df
Out[3]:
                             moleculesmiles   val
0  CCCC(=O)C1(c2ccccc2)CCN(CC(=O)Nc2ccc(C3CCCCC3)cc2)CC1     9
1  O=C(CN1CCC[C@H]1C(=O)OCc1ccccc1)Nc1ccc(C(=O)c2ccccc2)cc1  3000

Next up:
Tell me reported IC50 for CC1CCN(CC(=O)Nc2ccc(C(=O)c3ccccc3)cc2)CC1 , tested with Human NPY5 receptor (Homo sapiens, UniProt Q15761). 2200

====

# assayTarget: Human NPY5 receptor (Homo sapiens)
# testName: Human NPY5 receptor binding assay ([125I]PYY, membrane protein)
# conditionsUsed: [125I]PYY binding, read-out: hNPY5 IC50
Returns: string. Value is fulfilled if measured IC50 is below 1000 nM, and not fulfilled if it is greater than or equal to it.

Some solved entries appear below for comparison.
                                   compound            cat
0  O=C(CNc1c(I)cc(C(=O)O)cc1I)Nc1ccc(C2CCCCC2)cc1  not fulfilled
1     O=C(CN1CCC(CO)CC1)Nc1ccc(C2CCCCC2)cc1      fulfilled
2  CN(C)C1CCN(CC(=O)Nc2ccc(C3CCCCC3)cc2)CC1  not fulfilled
3     O=C(CN1CCCC1)Nc1ccc(C(=O)c2ccccc2)cc1  not fulfilled
4  NC1CCN(CC(=O)Nc2ccc(C3CCCCC3)cc2)C1 (stereo not drawn)  not fulfilled
5  O=C(CNCCCc1ccccc1)Nc1ccc(C(=O)c2ccccc2)cc1  not fulfilled
6  O=C(CN1CCC[C@@H]1C(O)(c1ccccc1)c1ccccc1)Nc1ccc(C(=O)c2ccccc2)cc1  not fulfilled
7  O=C(CN1CC[C@@H](O)C1)Nc1ccc(C(=O)c2ccccc2)cc1  not fulfilled
8  CCN(CC(=O)Nc1ccc(C(=O)c2ccccc2)cc1)Cc1ccncc1      fulfilled
9  CC(=O)OC1CC2CC1N(CC(=O)Nc1ccc(C(=O)c3ccccc3)cc1)C2 (stereo not drawn)      fulfilled

Please indicate whether the reported IC50 of CN(C(=O)OC(C)(C)C)C1CCN(CC(=O)Nc2ccc(C(=O)c3ccccc3)cc2)C1 (stereo not drawn) is strictly below 1000 nM. fulfilled

Please indicate whether the reported IC50 of O=C(CN1CCN(c2ccccc2Cl)CC1)Nc1ccc(C(=O)c2ccccc2)cc1 is strictly below 1000 nM. fulfilled

Please indicate whether the reported IC50 of O=C(CN1CCC(Cc2ccccc2)CC1)Nc1ccc(C(=O)c2ccccc2)cc1 is strictly below 1000 nM. not fulfilled

====

# assayTarget: Rat NPY5 receptor (Rattus norvegicus, UniProt Q63634)
# Sequence (Q63634 1-445): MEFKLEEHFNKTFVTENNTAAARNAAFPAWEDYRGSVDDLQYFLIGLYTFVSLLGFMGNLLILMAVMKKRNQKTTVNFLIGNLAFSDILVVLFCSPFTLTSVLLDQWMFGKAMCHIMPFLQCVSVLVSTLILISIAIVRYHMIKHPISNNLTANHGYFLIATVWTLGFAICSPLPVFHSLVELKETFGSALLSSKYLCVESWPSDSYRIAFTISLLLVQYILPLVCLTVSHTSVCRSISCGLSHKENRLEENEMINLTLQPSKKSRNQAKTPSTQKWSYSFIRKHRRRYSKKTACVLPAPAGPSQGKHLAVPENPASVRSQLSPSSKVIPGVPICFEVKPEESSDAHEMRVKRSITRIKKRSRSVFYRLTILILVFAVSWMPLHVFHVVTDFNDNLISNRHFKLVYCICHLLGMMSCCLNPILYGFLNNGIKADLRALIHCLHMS
# testName: Rat NPY5 receptor binding assay ([125I]PYY, membrane protein)
# conditionsUsed: [125I]PYY, read-out: rNPY5 IC50
Counter-ions that a name gives are not always drawn.
measurementType: log10 of IC50 (log10 of the value in µM)
Hello, just confirming the data are log10 of IC50 with units of µM.

# annotated cases, reported log10 of IC50 shown
                                   compound    val
0  O=C(CN1CCC(n2c(=O)[nH]c3ccccc32)CC1)Nc1ccc(C(F)(F)F)cc1 [Compound 356, reference compound]  -0.57
1  O=C(CN1CCC(n2c(=O)[nH]c3ccccc32)CC1)Nc1ccc([N+](=O)[O-])c(Cl)c1 [Compound 357, reference compound]  -0.64
2  O=C(CN1CCC(O)(Cc2ccccc2)CC1)Nc1ccc(C2CCCCC2)cc1 [Compound 314, hydrochloride]  -1.00
3  Cc1ccc(OC(=O)c2ccc(NC(=O)CN3CCC(n4c(=O)[nH]c5ccccc54)CC3)cc2)cc1 [Compound 264, hydrochloride]  -1.00

Return reported log10 of IC50; argument: CC(=O)NC1CCN(CC(=O)Nc2ccc(C3CCCCC3)cc2)C1.O=C(O)C(=O)O (stereo not shown) -0.77

Return reported log10 of IC50; argument: CN(C)c1cccc(NC(=O)CN2CCC(n3c(=O)[nH]c4ccccc43)CC2)c1 [Compound 338, reference compound] 0.08

Return reported log10 of IC50; argument: Cc1ccc(NC(=O)CN2CCC(n3c(=O)[nH]c4ccccc43)CC2)cc1 [Compound 359, reference compound] 0.08

====

measurementType: melting point

# annotated cases, reported melting point shown
In [3]: df
Out[3]:
                                   compound  measurementtype            val
0  O=C(CN1CCC(NC(=O)Nc2ccccc2)CC1)Nc1ccc(C2CCCCC2)cc1 [Compound 274]    melting point  222 to 223 °C
1  Cl.O=C(CN1CCC(n2c(=O)[nH]c3ccccc32)CC1)NCC1CCCCC1 [Compound 282]    melting point  196 to 197 °C
2  O=C(Nc1ccc(-c2ccccc2)cc1)C(c1ccccc1)N1CCC(n2c(=O)[nH]c3ccccc32)CC1 (centres unmarked) [Compound 312]    melting point  207 to 210 °C
3  O=C(CN1CCC(n2c(=O)[nH]c3ccccc32)CC1)Nc1ccc(C=Cc2ccccc2)cc1 [Compound 262]    melting point  234 to 235 °C
4  O=C(CNC(c1ccccc1)c1ccccc1)Nc1ccc(C2CCCCC2)cc1 [Compound 273]    melting point  132 to 133 °C
5  Cl.O=C(CN1CCC(n2c(=O)[nH]c3ccccc32)CC1)Nc1cccc2c1C(=O)c1ccccc1-2 [Compound 307]    melting point         204 °C
6  CCCCc1ccc(NC(=O)CN2CCC(n3c(=O)[nH]c4ccccc43)CC2)cc1 [Compound 254]    melting point  130 to 131 °C
7  O=C(CN1CCC(n2c(=O)[nH]c3ccccc32)CC1)Nc1ccc(-c2ccccc2)cc1 [Compound 275]    melting point  180 to 181 °C
8  O=C(CN1CCC(n2c(=O)[nH]c3ccccc32)CC1)Nc1cccc(C(=O)c2ccccc2)c1 [Compound 268]    melting point  134 to 135 °C
9  O=C(CN1CCC(n2c(=O)[nH]c3ccccc32)CC1)Nc1ccc(Cc2ccccc2)cc1 [Compound 258]    melting point  182 to 183 °C

Return reported melting point; argument: Cl.O=C(CN1CCC(n2c(=O)[nH]c3ccccc32)CC1)Nc1ccc2c(c1)C(=O)c1ccccc1-2 [Compound 306] 204 °C

Return reported melting point; argument: CC(C)OCCCNC(=O)CN1CCC(n2c(=O)[nH]c3ccccc32)CC1 [Compound 289] 67 to 68 °C

Return reported melting point; argument: CCCc1ccc(NC(=O)CN2CCC(n3c(=O)[nH]c4ccccc43)CC2)cc1 [Compound 253] 116 to 117 °C

Return reported melting point; argument: CC(C(=O)Nc1ccc(C2CCCCC2)cc1)N1CCC(n2c(=O)[nH]c3ccccc32)CC1 (centres unmarked) [Compound 278] 148 to 150 °C

====

# assayTarget: UniProtKB Q15761
# testName: Human NPY5 receptor binding assay ([125I]PYY, membrane protein)
# conditionsUsed: [125I]PYY binding, read-out: hNPY5 IC50
measurementType: pIC50
Formally, pIC50 is defined as -log10 of the concentration c, with c in mol/L.

Return reported pIC50; argument: CC(=O)C1(c2ccccc2)CCN(CC(=O)Nc2ccc(C3CCCCC3)cc2)CC1 8.40

Return reported pIC50; argument: O=C(CN1CCN(Cc2ccccc2)CC1)Nc1ccc(C2CCCCC2)cc1 5.04

====

# assayTarget: Human NPY5 receptor (Homo sapiens)
# testName: Human NPY5 receptor binding assay ([125I]PYY, membrane protein)
# conditionsUsed: [125I]PYY binding, read-out: hNPY5 IC50
measurementType: IC50 (nM)
Please give a number only; it is taken to be in nM.

# annotated cases, reported IC50 shown
>>> df
                            moleculesmiles  measurementtype  val
0  NC[C@@H]1CCCN1CC(=O)Nc1ccc(C2CCCCC2)cc1             IC50  430
1           CN(C)CC(=O)Nc1ccc(C2CCCCC2)cc1             IC50  780

Next up:
Return reported IC50; argument: O=C(CN1CCC(O)(Cc2ccccc2)CC1)Nc1ccc(C(=O)c2ccccc2)cc1 400
